- Protocol: reduction of polyQ htt aggregates in cells – imaging, exon1htt(103Q)mCFP cells, high-content imaging, primary screen (AID 483);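 note: compound exposure lasted 3 days before fixation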
- Stated conditions: exon1htt(103Q)mCFP cell line, aggregate imaging, at 2 µM; stronger effect = higher value
Active and inactive are the calls of the source.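 Rule for the calls: active = visual image review flags a hit and inhibition of aggregation exceeds 20%; inconclusive = visual hit but inhibition at or below 20%; inactive = no hit on visual image review.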
Observed property: inhibition of aggregation

Study these solved cases before continuing.
CCOC(=O)C(CC)Sc1nc2c(c(=O)[nH]c(=O)n2C)n1C/C=C(/C)Cl (centres undefined) = 18% (inactive)
CCOC(=O)C(NCc1ccccc1OC)(NC(C)=O)C(F)(F)F (centres undefined) = 14.4% (inactive)
CC(=O)Nc1c2c(nn1-c1ccc(C)cc1C)CSC2 = 9.6% (inactive)
CCn1c(SCC(=O)Nc2ccc(C(=O)OC)cc2)nnc1-c1cccs1 = 24.6% (inactive)
Cc1c(C(=O)OC2CCCCC2)[nH]c2c1C(=O)CC(C)(C)C2 = -22% (inactive)
CC(C)CC(c1nnnn1CC1CCCO1)N1CCN(Cc2ccc3c(c2)OCO3)CC1 (centres undefined) = -18.9% (inactive)
COc1ccc(N2CCN(CCCNC(=O)CC3Oc4ccc(C)cc4NC3=O)CC2)cc1 (centres undefined) = 11.6% (inactive)
O=C(c1ccc(Br)o1)N(c1ccc(Br)cc1)C1C=CS(=O)(=O)C1 (centres undefined) = 4.2% (inactive)

# evaluate next
The compound identified as CC(=O)Nc1ccc(S(=O)(=O)N2CCN=C2C)cc1 registered its inhibition of aggregation at 14.3% (inactive)

* * *

- Protocol: blockers of RIG-like receptor reporter activation – cell-based, Sendai virus stimulus, luciferase, 10K MLSCN set, TLR/RLR signaling modifier project, primary screen (AID 602276);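 note: firefly luciferase from ISG56 promoter only with Renilla not read in this screen; 0% = Sendai virus plus DMSO and 100% = medium plus DMSO without virus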
- Stated conditions: HEK293 RL24 IRF3 luciferase reporter, at 10 µM, stronger effect = higher value
Observed property: inhibition (%)
Respond numerically; units are % and should not be typed.

CCOC(=O)N1CCC(N2C(=O)c3ccccc3C2Nc2ccc3c(C)cc(=O)oc3c2)CC1 (stereo unspecified) = 14.2
COc1ccc(CN(Cc2cc3cc4c(cc3[nH]c2=O)OCO4)C(=O)NC2CCCCC2)cc1 = 5.31
O=C(C1CCC(CNc2c(N3CCCCC3)c(=O)c2=O)CC1)N1CCc2ccccc2C1 (stereo unspecified) = 8.75
CCn1c(=S)ccc2ccc(OC)cc21 = -6.3
CN(Cc1nc(-c2ccncc2)no1)S(=O)(=O)c1ccc(Cl)cc1 = -18.2

The compound identified as c1ccc2c(c1)CC(N1CCCCC1)c1ccccc1N2 (stereo unspecified) registered its inhibition at 10.1

The compound identified as O=C1C(Cl)=C(NCC2CCCO2)C(=O)N1CCc1ccccc1 (stereo unspecified) registered its inhibition at -53.6

The compound identified as c1cn(C23CC4CC(CC(C4)C2)C3)cn1 registered its inhibition at 11.8

The compound identified as CC(=O)N1CCN=C1SCc1c(F)cccc1Cl registered its inhibition at -11.7

The compound identified as CCOC(=O)N1CCC(NC(=O)c2cc3c(=O)n(C)c4ccccc4c3n2C)CC1 registered its inhibition at 4.95

The compound identified as CN(CC(=O)NCCC1=CCCCC1)S(=O)(=O)c1ccc2c(c1)CCC(=O)N2 registered its inhibition at -4.9

* * *

Each entry below carries its reported nuclei count.
- Protocol: reduction of polyQ htt aggregates in cells – imaging, exon1htt(103Q)mCFP cells, high-content imaging, primary screen (AID 483);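 note: compound exposure lasted 3 days before fixation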;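 for nuclei count: percent of the per-plate median nuclei count of sample wells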
- Stated conditions: exon1htt(103Q)mCFP cell line, aggregate imaging, at 2 µM; measured here: cell count, toxicity
Respond numerically; units are % and should not be typed.

CCN(CC)C(=O)c1ccc(CS(=O)(=O)c2ccc(OC)cc2)o1 = 102
O=C(C1CC1)N1CCC(c2nc(-c3ccc(S(=O)(=O)NCC4CCCO4)cc3)no2)CC1 (configuration not stated) = 143
O=S(c1ccsc1)c1ccsc1 = 95.8

The molecule identified as Clc1ss/c(=N\c2ccccn2)c1Cl registered its nuclei count at 112

The molecule identified as Cc1ccc(-c2nnn(CC(=O)N(Cc3cccs3)C(C(=O)NC(C)(C)C)c3ccc(C)o3)n2)o1 (configuration not stated) registered its nuclei count at 136

The molecule identified as CCc1nnc(NC(=O)C2CC(=O)N(Cc3ccco3)C2)s1 (configuration not stated) registered its nuclei count at 104
